target: T1, HLA-A*0201 (human); assay: UV-ligand exchange, streptavidin/anti-b2m sandwich ELISA
T1 construct: MHC monomer first loaded with a UV-sensitive peptide that is cleaved and exchanged for the test peptide; captured on streptavidin; also called peptide-receptive MHC molecules
measured-quantity: Average exchange yield in % (%)
Enter your answer as a number in %; do not include the unit.

The following binders have reported results that may help.
[[record]]
binder = "VLAPLFVYL (synthetic peptide from FZD1, FZD2, FZD7) [FZD-001]"
measurement = 52

[[record]]
binder = "FLHHLEIEL (synthetic peptide from ITGA11) [ITGA11-001]"
measurement = 53

[[record]]
binder = "KLSWDLIYL (synthetic peptide from CERCAM) [CERC-001]"
measurement = 62


So what's the measured Average exchange yield in % for this one? ALFPHLLQPV (synthetic peptide from CSE1L) [CSE1-001]
55
